Experiment: Study of the stability of the crystal forms (HPLC purity and XRPD crystal form, Day 7)
Format: physicochemical
Details: HPLC purity, 25° C. 60% RH, Day 7, spread flat in the air
observation type: Purity % (%)
State just the number; it will be interpreted in %.

compound	units	measurement
COc1cn([C@@H](Cc2ccccc2)C(=O)Nc2ccc(C(=O)O)cc2)c(=O)cc1-c1cc(Cl)ccc1C(C)=O [Crystal form A]	%	98.99
COc1cn([C@@H](Cc2ccccc2)C(=O)Nc2ccc(C(=O)O)cc2)c(=O)cc1-c1cc(Cl)ccc1C(C)=O [Crystal form D]	%	98.15
COc1cn([C@@H](Cc2ccccc2)C(=O)Nc2ccc(C(=O)O)cc2)c(=O)cc1-c1cc(Cl)ccc1C(C)=O [Crystal form F]	%	99.33

So, COc1cn([C@@H](Cc2ccccc2)C(=O)Nc2ccc(C(=O)O)cc2)c(=O)cc1-c1cc(Cl)ccc1C(C)=O [Crystal form C] ? Its Purity % was 99.29

So, COc1cn([C@@H](Cc2ccccc2)C(=O)Nc2ccc(C(=O)O)cc2)c(=O)cc1-c1cc(Cl)ccc1C(C)=O [Crystal form B] ? Its Purity % was 99.14

====

Purity % by entry:
Assay: Study of the stability of the crystal forms (HPLC purity and XRPD crystal form, Day 7)
Assay type: physicochemical
Conditions: HPLC purity, 40° C. 75% RH, Day 7, spread flat in the air
State just the number; it will be interpreted in %.

Worked cases, answers included:
compound	observation type	measurement
COc1cn([C@@H](Cc2ccccc2)C(=O)Nc2ccc(C(=O)O)cc2)c(=O)cc1-c1cc(Cl)ccc1C(C)=O [Crystal form F]	Purity %	99.21
COc1cn([C@@H](Cc2ccccc2)C(=O)Nc2ccc(C(=O)O)cc2)c(=O)cc1-c1cc(Cl)ccc1C(C)=O [Crystal form C]	Purity %	99.31
COc1cn([C@@H](Cc2ccccc2)C(=O)Nc2ccc(C(=O)O)cc2)c(=O)cc1-c1cc(Cl)ccc1C(C)=O [Crystal form D]	Purity %	98.33
COc1cn([C@@H](Cc2ccccc2)C(=O)Nc2ccc(C(=O)O)cc2)c(=O)cc1-c1cc(Cl)ccc1C(C)=O [Crystal form A]	Purity %	99.01

Below: the item to evaluate.
So, COc1cn([C@@H](Cc2ccccc2)C(=O)Nc2ccc(C(=O)O)cc2)c(=O)cc1-c1cc(Cl)ccc1C(C)=O [Crystal form B] ? Its Purity % was 99.13

====

Assay: Study of the stability of the crystal forms (HPLC purity and XRPD crystal form, Day 7)
Assay type: physicochemical
Conditions: HPLC purity, 4° C., Day 7, spread flat in the air
observation type: Purity % (%)
State just the number; it will be interpreted in %.

So, COc1cn([C@@H](Cc2ccccc2)C(=O)Nc2ccc(C(=O)O)cc2)c(=O)cc1-c1cc(Cl)ccc1C(C)=O [Crystal form B] ? Its Purity % was 99.13

====

Assay: Study of the stability of the crystal forms (HPLC purity and XRPD crystal form, Day 7)
Type: physicochemical
Settings: XRPD, 25° C. 60% RH, Day 7
Description: Example 13. Study of the Stability of the Crystal Forms The samples of crystal forms A, B, C, D and F were spread flat in the air to test sample stability under conditions of 4° C., 25° C.-60% relative humidity (RH) and 40° C.-75% relative humidity (RH). The sampling was carried out on Day 7. The HPLC purity and crystal form stability of the samples were studied. […]
observation type: Crystal form

Worked cases, answers included:
compound	Crystal form
COc1cn([C@@H](Cc2ccccc2)C(=O)Nc2ccc(C(=O)O)cc2)c(=O)cc1-c1cc(Cl)ccc1C(C)=O [Crystal form C]	Same
COc1cn([C@@H](Cc2ccccc2)C(=O)Nc2ccc(C(=O)O)cc2)c(=O)cc1-c1cc(Cl)ccc1C(C)=O [Crystal form A]	Different
COc1cn([C@@H](Cc2ccccc2)C(=O)Nc2ccc(C(=O)O)cc2)c(=O)cc1-c1cc(Cl)ccc1C(C)=O [Crystal form D]	Different
COc1cn([C@@H](Cc2ccccc2)C(=O)Nc2ccc(C(=O)O)cc2)c(=O)cc1-c1cc(Cl)ccc1C(C)=O [Crystal form F]	Same

So, COc1cn([C@@H](Cc2ccccc2)C(=O)Nc2ccc(C(=O)O)cc2)c(=O)cc1-c1cc(Cl)ccc1C(C)=O [Crystal form B] ? Its Crystal form was Same
